Experimental Target: HCV NS3/4A protease genotype 1b (Hepatitis C virus genotype 1b, UniProt P26663)
Sequence (P26663 1027-1657): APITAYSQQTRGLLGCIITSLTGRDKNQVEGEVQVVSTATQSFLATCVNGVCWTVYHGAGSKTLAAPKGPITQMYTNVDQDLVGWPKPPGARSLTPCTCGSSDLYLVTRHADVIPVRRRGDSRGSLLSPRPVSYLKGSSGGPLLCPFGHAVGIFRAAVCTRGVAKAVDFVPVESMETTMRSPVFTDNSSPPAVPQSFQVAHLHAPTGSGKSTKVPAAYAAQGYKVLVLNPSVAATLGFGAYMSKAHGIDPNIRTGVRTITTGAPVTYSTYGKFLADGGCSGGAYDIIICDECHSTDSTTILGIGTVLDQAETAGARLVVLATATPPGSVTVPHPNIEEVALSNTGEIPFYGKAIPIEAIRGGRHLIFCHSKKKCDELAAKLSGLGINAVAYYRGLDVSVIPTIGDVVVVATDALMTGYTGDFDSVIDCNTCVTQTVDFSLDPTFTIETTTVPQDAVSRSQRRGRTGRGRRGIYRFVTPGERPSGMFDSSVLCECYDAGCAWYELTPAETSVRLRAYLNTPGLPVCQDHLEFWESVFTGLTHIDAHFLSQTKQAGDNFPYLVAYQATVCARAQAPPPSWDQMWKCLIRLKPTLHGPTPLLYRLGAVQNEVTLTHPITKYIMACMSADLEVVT
Sequence (P26663 1658-1711): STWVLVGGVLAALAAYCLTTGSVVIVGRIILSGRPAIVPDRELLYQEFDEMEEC
Assay Procedure: HCV NS3/4A protease time-resolved fluorescence (TRF) assay, Ki against genotype 1b
Type: biochemical
Experimental Conditions: IC50 [gt-1b] (nM), NS3/4A genotype 1b, enzyme 0.2 nM
Measured Endpoint: IC50 (nM)
Could you give me the number in nM? Just the number is fine.

Compound	Measured Endpoint	Obs Value
Cc1nc2c(C(F)(F)F)cccc2c2c1O[C@]1(CC2)C[C@H]2C(=O)N[C@]3(C(=O)NS(=O)(=O)C4(C)CC4)C[C@H]3/C=C\CCCCC[C@H](NC(=O)OCC(C)C)C(=O)N2C1 [Example 113]	IC50	0.298

### Prompt # value lookup — system HCV NS3/4A protease genotype 1b (Hepatitis C virus genotype 1b, UniProt P26663), readout IC50, item Cc1nc2ccc(OC(F)(F)F)cc2c2c1O[C@]1(CC2)C[C@H]2C(=O)N[C@]3(C(=O)NS(=O)(=O)C4(C)CC4)C[C@H]3/C=C\CCCCC[C@H](NC(=O)OCC(C)(C)C)C(=O)N2C1 [Example 297]
### Response 0.009

### Prompt # value lookup — system HCV NS3/4A protease genotype 1b (Hepatitis C virus genotype 1b, UniProt P26663), readout IC50, item Cc1nc2ccccc2c2c1O[C@]1(CC2)C[C@H]2C(=O)N[C@]3(C(=O)NS(=O)(=O)C4(C)CC4)C[C@H]3/C=C\CCCCC[C@H](NC(=O)OC(CN(C)S(C)(=O)=O)C(C)(C)C)C(=O)N2C1 (single isomer, unassigned) [Example 262]
### Response 0.037

### Prompt # value lookup — system HCV NS3/4A protease genotype 1b (Hepatitis C virus genotype 1b, UniProt P26663), readout IC50, item COc1ccc2nc(C3CC3)c3c(c2c1)CC[C@]1(C[C@H]2C(=O)N[C@]4(C(=O)NS(=O)(=O)C5(C)CC5)C[C@H]4/C=C\CCCCC[C@H](NC(=O)OC(C)(C)C)C(=O)N2C1)O3 [Example 16]
### Response 0.009
